# ASSAY INFO: Clinical trial APD356-016: plasma and urine pharmacokinetics of lorcaserin, M1 and M5 after a 10 mg dose in subjects with renal impairment
# MEASUREMENT CONDITIONS: human, plasma, 10 mg, t1/2, ESRD; 10 mg QD Authentic; Day 1
MEASURE NAME: half-life (h)
# unit: h | format: bare number

Inquiry: Any idea what half-life was measured for `C[C@H]1CNCCc2ccc(Cl)cc21` ?
Reply text: 43.8

###

# ASSAY INFO: Clinical trial APD356-016: plasma and urine pharmacokinetics of lorcaserin, M1 and M5 after a 10 mg dose in subjects with renal impairment
# MEASUREMENT CONDITIONS: human, plasma, oral, 10 mg, Cmax, 10 mg dose; Normal; actual BW groups
MEASURE NAME: Cmax (ng/mL)
State the answer as a number, implicitly in ng/mL.

Inquiry: Look up Cmax for this compound: `C[C@H]1CNCCc2ccc(Cl)cc21`
Reply text: 36

###

# ASSAY INFO: Clinical trial APD356-016: plasma and urine pharmacokinetics of lorcaserin, M1 and M5 after a 10 mg dose in subjects with renal impairment
# MEASUREMENT CONDITIONS: human, plasma, oral, 10 mg, AUC0-t, 10 mg dose; Severe N = 1; actual BW groups
MEASURE NAME: AUC(0-t) (ng·h/mL)
# value in ng·h/mL; strip the unit string

Inquiry: Would you kindly share the measured AUC(0-t) for `C[C@H]1CNCCc2ccc(Cl)cc21` ?
Reply text: 461

###

# ASSAY INFO: Clinical trial APD356-016: plasma and urine pharmacokinetics of lorcaserin, M1 and M5 after a 10 mg dose in subjects with renal impairment
# MEASUREMENT CONDITIONS: human, plasma and urine, oral, 10 mg, ClR/F, 10 mg dose; Moderate; ideal BW groups
MEASURE NAME: CL renal (mL/min)
The answer is to be given in mL/min; state only the numeric part.

Inquiry: What measured CL renal goes with `C[C@H]1CNCCc2ccc(Cl)cc21` ?
Reply text: 11.1

###

# ASSAY INFO: Clinical trial APD356-016: plasma and urine pharmacokinetics of lorcaserin, M1 and M5 after a 10 mg dose in subjects with renal impairment
# MEASUREMENT CONDITIONS: human, plasma, 10 mg, Cmax, Mild; 10 mg QD Authentic; Day 1
MEASURE NAME: Cmax

Inquiry: // Cmax lookup, key: `C[C@H]1CNCCc2ccc(Cl)cc21`
Reply text: 36.3 ng/mL

###

# ASSAY INFO: Clinical trial APD356-016: plasma and urine pharmacokinetics of lorcaserin, M1 and M5 after a 10 mg dose in subjects with renal impairment
# MEASUREMENT CONDITIONS: human, plasma, oral, 10 mg, Cmax, 10 mg dose; Normal; ideal BW groups
MEASURE NAME: Cmax
Kindly format the answer as number then unit.

Inquiry: Endpoint output: Cmax of `C[C@H]1CNCCc2ccc(Cl)cc21` . Value?
Reply text: 37 ng/mL

###

# ASSAY INFO: Clinical trial APD356-016: plasma and urine pharmacokinetics of lorcaserin, M1 and M5 after a 10 mg dose in subjects with renal impairment
# MEASUREMENT CONDITIONS: human, plasma, oral, 10 mg, Vz/F, 10 mg dose; Severe; ideal BW groups
MEASURE NAME: Vd/F (L)
Supply the numeric figure in L, leaving out any unit text.

Inquiry: // query Vd/F value for entry `C[C@H]1CNCCc2ccc(Cl)cc21`
Reply text: 401

###

# ASSAY INFO: Clinical trial APD356-016: plasma and urine pharmacokinetics of lorcaserin, M1 and M5 after a 10 mg dose in subjects with renal impairment
# MEASUREMENT CONDITIONS: human, plasma, oral, 10 mg, tmax, 10 mg dose; Mild; actual BW groups; median
MEASURE NAME: tmax (h)
Answer in h, number only, no unit symbol.

Inquiry: Which tmax value is on record for `C[C@H]1CNCCc2ccc(Cl)cc21` ?
Reply text: 2.5

###

# ASSAY INFO: Clinical trial APD356-016: plasma and urine pharmacokinetics of lorcaserin, M1 and M5 after a 10 mg dose in subjects with renal impairment
# MEASUREMENT CONDITIONS: human, plasma, 10 mg, t1/2, Severe; 10 mg QD Authentic; Day 1
MEASURE NAME: half-life (h)
# value in h; strip the unit string

Inquiry: Need half-life of `C[C@H]1CNCCc2ccc(Cl)cc21` , thanks.
Reply text: 15

###

# ASSAY INFO: Clinical trial APD356-016: plasma and urine pharmacokinetics of lorcaserin, M1 and M5 after a 10 mg dose in subjects with renal impairment
# MEASUREMENT CONDITIONS: human, plasma and urine, oral, 10 mg, ClR/F, 10 mg dose; Severe; ideal BW groups
MEASURE NAME: CL renal (mL/min)
Write the number in mL/min without appending the unit.

Inquiry: What measured CL renal goes with `C[C@H]1CNCCc2ccc(Cl)cc21` ?
Reply text: 11

###

# ASSAY INFO: Clinical trial APD356-016: plasma and urine pharmacokinetics of lorcaserin, M1 and M5 after a 10 mg dose in subjects with renal impairment
# MEASUREMENT CONDITIONS: human, plasma, oral, 10 mg, tmax, 10 mg dose; Normal; ideal BW groups; median
MEASURE NAME: tmax (h)
Respond numerically; units are h and should not be typed.

Inquiry: Please give the measured tmax for this molecule: `C[C@H]1CNCCc2ccc(Cl)cc21`
Reply text: 2

###

# ASSAY INFO: Clinical trial APD356-016: plasma and urine pharmacokinetics of lorcaserin, M1 and M5 after a 10 mg dose in subjects with renal impairment
# MEASUREMENT CONDITIONS: human, plasma and urine, oral, 10 mg, ClR/F, 10 mg dose; Mild; actual BW groups
MEASURE NAME: CL renal (mL/min)
Answer format: numeric, mL/min implied, no suffix.

Inquiry: Item C[C@H]1CNCCc2ccc(Cl)cc21 [Lorcaserin] has what recorded CL renal?
Reply text: 10.3

###

# ASSAY INFO: Clinical trial APD356-016: plasma and urine pharmacokinetics of lorcaserin, M1 and M5 after a 10 mg dose in subjects with renal impairment
# MEASUREMENT CONDITIONS: human, plasma, 10 mg, AUC24 hr, Mild; 10 mg QD Authentic; Day 1
MEASURE NAME: AUC(0-t) (ng·h/mL)
All answers are understood in ng·h/mL, so give the number only.

Inquiry: # get_value(readout='AUC(0-t)', item= `C[C@H]1CNCCc2ccc(Cl)cc21` )
Reply text: 623

###

# ASSAY INFO: Clinical trial APD356-016: plasma and urine pharmacokinetics of lorcaserin, M1 and M5 after a 10 mg dose in subjects with renal impairment
# MEASUREMENT CONDITIONS: human, plasma, oral, 10 mg, MRTinf, 10 mg dose; Normal; actual BW groups
MEASURE NAME: MRT inf

Inquiry: Which MRT inf reading was recorded for the compound `C[C@H]1CNCCc2ccc(Cl)cc21` ?
Reply text: 16.5 h

###

# ASSAY INFO: Clinical trial APD356-016: plasma and urine pharmacokinetics of lorcaserin, M1 and M5 after a 10 mg dose in subjects with renal impairment
# MEASUREMENT CONDITIONS: human, plasma, oral, 10 mg, tmax, 10 mg dose; Severe; ideal BW groups; median
# Method: The interaction of renal insufficiency with the pharmacokinetics, tolerability and safety of lorcaserin were evaluated in a formal PK study in subjects with renal impairment and in the populations studied in phase 2 and phase 3 clinical studies. The pharmacokinetic properties of lorcaserin in subjects with varying degrees of renal impairment were evaluated in clinical trial APD356-016. […]
MEASURE NAME: tmax
Please give the number followed by its unit.

Inquiry: What value of tmax has been recorded for this entry: `C[C@H]1CNCCc2ccc(Cl)cc21`
Reply text: 3 h

###

# ASSAY INFO: Clinical trial APD356-016: plasma and urine pharmacokinetics of lorcaserin, M1 and M5 after a 10 mg dose in subjects with renal impairment
# MEASUREMENT CONDITIONS: human, plasma, oral, 10 mg, AUC0-inf, 10 mg dose; Severe N = 1; actual BW groups
MEASURE NAME: AUC0-inf (ng·h/mL)
Report the figure in ng·h/mL without appending any unit label.

Inquiry: Reported AUC0-inf, compound `C[C@H]1CNCCc2ccc(Cl)cc21` : ____
Reply text: 478

###

# ASSAY INFO: Clinical trial APD356-016: plasma and urine pharmacokinetics of lorcaserin, M1 and M5 after a 10 mg dose in subjects with renal impairment
# MEASUREMENT CONDITIONS: human, plasma, oral, 10 mg, AUC0-inf, 10 mg dose; Moderate; actual BW groups
MEASURE NAME: AUC0-inf (ng·h/mL)
Quick reminder: number only, in ng·h/mL, skip the unit.

Inquiry: Consider the molecule `C[C@H]1CNCCc2ccc(Cl)cc21` and give its measured AUC0-inf.
Reply text: 516

###

# ASSAY INFO: Clinical trial APD356-016: plasma and urine pharmacokinetics of lorcaserin, M1 and M5 after a 10 mg dose in subjects with renal impairment
# MEASUREMENT CONDITIONS: human, plasma, oral, 10 mg, MRTinf, 10 mg dose; Severe; ideal BW groups
MEASURE NAME: MRT inf (h)
A number alone suffices; assume h.

Inquiry: Item under review: `C[C@H]1CNCCc2ccc(Cl)cc21` . Reported MRT inf?
Reply text: 21.7

Where do these numbers come from? They come from patent US8999970B2.
